I'd appreciate it if you could supply z-scoreHeLa rep 2 values for the items below.
- Test system: HeLa cells
- EXPERIMENT_NOTES: Compound screen by flow cytometry: HeLa cell count as surrogate readout of cell viability (z-scoreHeLa); note: test concentration or dose not given here
- Type: cell-based, human
- MEASUREMENT_SETUP: PKIS compound screen, HeLa cell count, replicate 2
Give bare numbers.

Check out these entries, answers already filled in.
- COc1ccc(Nc2nccc(N3CCC(NC(=O)c4cc5ccccc5s4)C3)n2)cc1 (stereo not shown) [GSK1379738A]: -0.32
- Cc1ccc(Nc2ccnc(Nc3cccc(C(N)=O)c3)n2)cc1O [GW575808A]: 0.61
- COc1cc(C)c(N(C)C(=O)CN(C)C)cc1Nc1nc(Nc2cccc(F)c2C(N)=O)c2cc[nH]c2n1 [GSK2219385A]: -1.69
- CC(C)c1nc(-c2cccc(NS(=O)(=O)c3c(F)cccc3F)c2F)c(-c2ccnc(Nc3ccc(N4CCOCC4)nc3)n2)s1 [GSK2008607A]: -1.83
- Cc1cccc(-c2nc(Nc3cccc(C(N)=O)c3)c3ccccc3n2)n1 [GW876019X]: -2.51

Lab note: each compound below needs its z-scoreHeLa rep 2 filled in.
1. CS(=O)(=O)Nc1ccc(-c2cc(-c3ccccc3)cc(C(N)=O)c2N)cc1 [GSK586581A]
2. COc1ccc(Nc2nccc(N3CCC(NC(=O)Nc4cccc(OC)c4)C3)n2)cc1 (stereo not shown) [GSK1379742A]
3. Cc1nn2c(=O)cc(N3CCOCC3)nc2n1Cc1cccc(Cl)c1Cl [GSK2342769A]
4. c1ccc(Oc2ccc(Nc3ccnc4cc(-c5ccc(CNCCN6CCOCC6)o5)ccc34)cc2)nc1 [GW567145X]

**Result**
1.24
-0.31
-0.19
-0.93

Below is a list of compounds. For each, state its recorded z-scoreHeLa rep 2.
1. Fc1cc(Cl)ccc1Nc1ccnc2cc(-c3ccc(CN4CCSCC4)o3)ccc12 [GW560106X]
2. CCS(=O)(=O)c1ccc(OC)c(Nc2nccc(N(C)c3ccc4c(C)n[nH]c4c3)n2)c1 [GW654652C]
3. COc1ccc(COc2ccc(Cc3cnc(N)nc3N)cc2OC)cc1 [GW632580X]
4. O=C1Nc2ccc(-c3cccnc3)cc2C1=Cc1cc(Br)c(O)c(Br)c1 [GW429374A]
5. COc1ccc(Nc2nccc(N3CCC(NC(=O)C(C)c4ccc(Cl)cc4)CC3)n2)cc1 (stereo not shown) [GSK1379812A]
6. CCOc1ccc2c(-c3ccnc(Nc4cccc(C(F)(F)F)c4)n3)cnn2n1 [GW811761X]
7. COc1cc(Nc2nccc(N3CCC(NC(=O)Nc4cccc(C(C)=O)c4)C3)n2)cc(OC)c1OC (stereo not shown) [GSK1379753A]

**Result**
1: -1.06; 2: -1.77; 3: 0.0341; 4: 0.72; 5: 0.39; 6: 1.06; 7: 0.58

Please supply z-scoreHeLa rep 2 for each of the following items, keeping them in order.
1. O=C(NC1CCN(c2ccnc(Nc3ccc(F)cc3)n2)C1)c1cc2ccccc2s1 (stereo not shown) [GSK1379716A]
2. Cc1cc(-c2ccc3c(c2)CC[C@@H](N[C@@H](C)c2ccccc2)C3)cnc1N [GW412617A]
3. Cc1ccccc1CC(=O)N1CCc2cc(-c3cn(C)c4ncnc(N)c34)ccc21 [GSK2603346A]

**Result**
-1.39
1.29
-1.30
